- METHOD: Selectivity ratio of IC50 for human ERG expressed in HEK cells to Ki for Sprague-Dawley rat brain DAT
- Assay type: cell-based
Give Selectivity ratio for every item shown.

The compound listed as Fc1ccc(C(OC2CC3CCC(C2)N3CC2CC2)c2ccc(F)cc2)cc1 (centres undefined) has a reported Selectivity ratio of 161

The compound listed as CC(C)[C@@H](N)CN1C2CCC1CC(OC(c1ccc(F)cc1)c1ccc(F)cc1)C2 (some centres undefined) has a reported Selectivity ratio of 345

The compound listed as CN(C)CCN1C2CCC1CC(OC(c1ccc(F)cc1)c1ccc(F)cc1)C2 (centres undefined) has a reported Selectivity ratio of 686

The compound listed as CN(C)CCN1C2CCC1CC(NC(c1ccc(F)cc1)c1ccc(F)cc1)C2 (centres undefined) has a reported Selectivity ratio of 383
